Tested on: ATP;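 also: ATP exposure 15 min at 22 °C before imaging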
ASSAY EXPLANATION: switch fluorescence ratio, 500 uM ATP over buffer (Cy3 cluster intensity, sum of 5 cycles each) (fold (ratio)); higher = stronger signal-on switching upon ATP binding; sequences stand for … in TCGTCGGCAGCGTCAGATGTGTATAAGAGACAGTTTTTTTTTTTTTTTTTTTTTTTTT…TC
CONDITION NOTES: aptamer strand: ATP DNA aptamer (quencher-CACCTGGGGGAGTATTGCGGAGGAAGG + anchor), 100 nM annealed; ATP concentration: 500 uM
READOUT LABEL: switch fluorescence ratio

# QUERY SEQUENCE, EXPERIMENTAL TARGET, RESULT NUMBER
data = [
    ("ATGGTGCTGA", "ATP", 1.01),
    ("GATGAGTTG", "ATP", 1.01),
    ("TGTAAGCCTT", "ATP", 1.03),
    ("TCAAGAGGCG", "ATP", 1.02),
    ("CGGCTGGCTG", "ATP", 1.04),
    ("TATAGGGCGG", "ATP", 1.13),
    ("CTGCGGATGG", "ATP", 1.06),
    ("TTCCGGGTAT", "ATP", 1.07),
    ("CGGTTTGATT", "ATP", 1.04),
    ("TGGATGGGGT", "ATP", 0.973),
    ("GGTGGGGGTG", "ATP", 0.998),
]

====

A collection of sequences and their measured switch fluorescence ratio
Test system: ATP;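 also: ATP exposure 15 min at 22 °C before imaging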
ASSAY EXPLANATION: switch fluorescence ratio, 500 uM ATP over buffer (Cy3 cluster intensity, sum of 5 cycles each) (fold (ratio)); higher = stronger signal-on switching upon ATP binding; sequences stand for … in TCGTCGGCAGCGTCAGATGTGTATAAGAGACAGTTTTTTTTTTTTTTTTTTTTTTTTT…TC
CONDITION NOTES: aptamer strand: ATP DNA aptamer (quencher-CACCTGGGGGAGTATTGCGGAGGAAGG + anchor), 100 nM annealed; ATP concentration: 500 uM

# QUERY SEQUENCE, EXPERIMENTAL TARGET, switch fluorescence ratio
data = [
    ("CTTGCCGGCG", "ATP", 1.07),
    ("CGTTCAGTTC", "ATP", 0.972),
    ("GGATGGGGGC", "ATP", 0.992),
    ("TGTTAAAAAA", "ATP", 1.01),
    ("AAAGACGACA", "ATP", 1.27),
    ("GGTTGGATCG", "ATP", 0.999),
    ("AGGGAAATTT", "ATP", 0.99),
    ("GTTGTAGTCC", "ATP", 1.02),
    ("ATAGTAGGTT", "ATP", 1.01),
    ("GCAGATCGGT", "ATP", 0.967),
    ("GATTTTTGGG", "ATP", 1.01),
    ("GATTTTCACT", "ATP", 0.99),
    ("TTATCCGGAT", "ATP", 0.933),
    ("AATGTGTACT", "ATP", 1.03),
    ("TAGTGTAGGC", "ATP", 1.03),
    ("CCGGCTGGTG", "ATP", 1.2),
    ("TGGATCAGAG", "ATP", 0.998),
    ("CGGTTTGCAG", "ATP", 0.972),
    ("CGGCTGTCAC", "ATP", 1.03),
    ("GATAAGTCGT", "ATP", 0.991),
    ("CTACATGCCC", "ATP", 1.15),
    ("TTTTTCGCGG", "ATP", 1.01),
    ("CGCTGTGATG", "ATP", 1.01),
    ("GGCTTAAGGG", "ATP", 0.972),
    ("CAAAAGTCGA", "ATP", 1.04),
    ("AGATGGATTT", "ATP", 0.963),
    ("ACTTTGGCCC", "ATP", 1),
    ("TGTAAGTGCG", "ATP", 0.983),
    ("TTAGCGAGGA", "ATP", 1.03),
    ("GTGAAACGGG", "ATP", 0.998),
    ("TGTAGTACCG", "ATP", 1.02),
    ("CTGTTAGTTG", "ATP", 0.993),
    ("ATTTTTAGCT", "ATP", 1.02),
    ("AAGAATTGGG", "ATP", 1.06),
    ("GTGGGCCGAG", "ATP", 1.02),
    ("GAATGGGATC", "ATP", 0.97),
    ("ACGTGGGGTC", "ATP", 1.02),
    ("TAGGAGGCGC", "ATP", 0.937),
    ("TGGAAGGGGT", "ATP", 1.09),
    ("AGAGGGCGTC", "ATP", 1.04),
    ("TTATAATATT", "ATP", 1.03),
    ("ATATTTGGGG", "ATP", 1.02),
    ("ATCTCTGGTT", "ATP", 0.966),
    ("AATTCACTAA", "ATP", 1.03),
    ("TAAGTGGGTG", "ATP", 1.01),
    ("GTGGGGAATA", "ATP", 1.03),
    ("TCATATTTAT", "ATP", 0.996),
    ("CCGTTACATG", "ATP", 1.05),
    ("AAGAAGCAGA", "ATP", 1),
    ("AGGCGTTGGG", "ATP", 1.01),
    ("CTCTGGGTTG", "ATP", 1.07),
    ("AAGGTTTTTT", "ATP", 1.01),
    ("CGGGAACGGA", "ATP", 0.984),
    ("AGCTTTTGAA", "ATP", 1.01),
    ("CCAGTGTTAG", "ATP", 1.03),
    ("GCAGGGGTTG", "ATP", 1.03),
    ("ATCCTCTTGC", "ATP", 1.09),
    ("CGTGTTGGAG", "ATP", 0.969),
    ("TGGGACGTTT", "ATP", 0.934),
    ("ACGTTATAAG", "ATP", 1.1),
    ("ATGAGGGTTT", "ATP", 1.01),
    ("AAGGCTGCAG", "ATP", 0.92),
    ("GGGTCCATGC", "ATP", 1.01),
    ("AGCGCTGCCT", "ATP", 0.996),
    ("GGGTTGGGGT", "ATP", 0.997),
    ("CTTGGTAGGG", "ATP", 1.03),
    ("GATTATTGCT", "ATP", 0.988),
    ("AGTCCGGGTA", "ATP", 1.08),
    ("TGTAGTTGGT", "ATP", 1.01),
    ("GGGGGAGAGC", "ATP", 1.03),
    ("TTGGGTTTCG", "ATP", 1.01),
    ("ACCCAAATCA", "ATP", 1.04),
    ("TTTATGGCTA", "ATP", 1.03),
    ("TTTTATAGGG", "ATP", 0.948),
    ("GATAAGAGTG", "ATP", 1.02),
    ("GGTGGGGAAC", "ATP", 1.03),
    ("TTAAAGCTTT", "ATP", 1.09),
    ("TGTTAGGAAT", "ATP", 1),
    ("CGCGGACGGT", "ATP", 1.05),
    ("TAGCTTCAC", "ATP", 1.14),
    ("AGGAGAATGT", "ATP", 1.02),
    ("TAATGATTGC", "ATP", 1.06),
    ("GGTCGGGCTG", "ATP", 0.994),
    ("AAGAGTAGAT", "ATP", 1.01),
    ("CAGTAGGGCA", "ATP", 0.982),
    ("TGTGTTTACT", "ATP", 0.991),
]
